experiment: Half life in C57BL/6 mouse; type: ADME, organism-based; details: in vivo
REPORTED_PROPERTY: half-life (h)

I. Cn1c(-c2ccc(-c3cnccn3)cc2Cl)nnc1C1(c2ccc(Cl)cc2)CC(F)C1 (configuration not stated)
II. Cn1c(-c2ccc(-c3cnccn3)cc2)nnc1C1(c2ccc(Cl)cc2)CCC1
**Query** Pick the one with the larger half-life: I vs II Choose, then provide that item's label.
**Result** I

====

Entries with reported pIC50 on 11-beta-hydroxysteroid dehydrogenase type 2 (Mus musculus, UniProt P51661)
Sequence (P51661 whole entry): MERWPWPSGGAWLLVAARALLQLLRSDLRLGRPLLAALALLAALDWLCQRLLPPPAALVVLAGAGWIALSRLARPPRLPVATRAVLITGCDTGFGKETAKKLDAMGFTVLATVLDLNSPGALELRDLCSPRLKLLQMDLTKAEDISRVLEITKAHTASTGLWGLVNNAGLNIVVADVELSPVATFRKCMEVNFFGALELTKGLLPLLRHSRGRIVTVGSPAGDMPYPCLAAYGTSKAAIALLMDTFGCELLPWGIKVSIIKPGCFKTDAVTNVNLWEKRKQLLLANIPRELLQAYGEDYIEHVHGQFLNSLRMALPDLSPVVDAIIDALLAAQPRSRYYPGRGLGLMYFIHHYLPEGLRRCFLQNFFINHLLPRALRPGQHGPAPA
pIC50: −log10 of the molar value.

The following molecules have reported results that may help.
# SMILES_ENTRY, pIC50
records = [
    ("Cn1c(-c2ccc(C(N)=O)cc2Cl)nnc1C1(c2ccc(Cl)cc2)CCC1", "< 5.40"),
    ("C1CCCn2c(nnc2C23CC4CC(CC(C4)C2)C3)CC1", "< 5.40"),
    ("Cn1c(-c2ccc(NC(=O)c3cnccn3)cc2Cl)nnc1C1(c2ccc(Cl)cc2)CCC1", "< 5.40"),
]

**Query** Give the observed pIC50 of Cn1c(-c2ccc(C(=O)NC(C)(C)C)cc2)nnc1C1(c2ccc(Cl)cc2)CCC1 for 11-beta-hydroxysteroid dehydrogenase type 2 (Mus musculus, UniProt P51661).
**Result** < 5.40

**Query** Consider the molecule Cn1c(-c2ccc(C(N)=O)cc2)nnc1C1(c2ccc(Cl)cc2)CCC1 tested on 11-beta-hydroxysteroid dehydrogenase type 2 (Mus musculus, UniProt P51661); state its pIC50.
**Result** < 5.40

**Query** Give measured pIC50 for CC(=O)Nc1ccc(-c2nnc(C3(c4ccc(Cl)cc4)CCC3)n2C)c(Cl)c1 (11-beta-hydroxysteroid dehydrogenase type 2 (Mus musculus, UniProt P51661)).
**Result** < 5.40

**Query** Report pIC50 on 11-beta-hydroxysteroid dehydrogenase type 2 (Mus musculus, UniProt P51661) for this entry: Cn1c(-c2ccc(-c3ccc(N)nn3)cc2)nnc1C1(c2ccc(Cl)cc2)CCC1
**Result** < 5.40

**Query** Consider the molecule Cn1c(-c2ccc(-c3ccc(Cl)nn3)cc2)nnc1C1(c2ccc(Cl)cc2)CCC1 tested on 11-beta-hydroxysteroid dehydrogenase type 2 (Mus musculus, UniProt P51661); state its pIC50.
**Result** < 5.40

**Query** State measured pIC50 of the molecule Cn1c(-c2ccc(C(=O)N3CCC3)cc2)nnc1C1(c2ccc(Cl)cc2)CCC1 with 11-beta-hydroxysteroid dehydrogenase type 2 (Mus musculus, UniProt P51661).
**Result** < 5.40

**Query** GET pIC50 where system = 11-beta-hydroxysteroid dehydrogenase type 2 (Mus musculus, UniProt P51661) and item = Cn1c(-c2ccc(-c3cc(=O)[nH]cn3)cc2)nnc1C1(c2ccc(Cl)cc2)CCC1
**Result** < 5.40

====

experiment: Oral bioavailability in C57BL/6 mouse; type: ADME, organism-based; conditions: in vivo
REPORTED_PROPERTY: bioavailability (%)

1. Cn1c(-c2ccc(-c3cnccn3)cc2)nnc1C1(c2ccc(Cl)cc2)CCC1
2. Cn1c(-c2ccc(-c3cnccn3)cc2Cl)nnc1C1(c2ccc(Cl)cc2)CC(F)C1 (configuration not stated)
**Query** Select the item with the higher value of bioavailability from the options 1 and 2 listed. Reply briefly: the label of your chosen item.
**Result** 2

====

target: Nuclear receptor subfamily 1 group I member 2 (Homo sapiens, UniProt O75469); test: Agonist activity at PXR at 10 uM; assay type: functional
Sequence (O75469 whole entry): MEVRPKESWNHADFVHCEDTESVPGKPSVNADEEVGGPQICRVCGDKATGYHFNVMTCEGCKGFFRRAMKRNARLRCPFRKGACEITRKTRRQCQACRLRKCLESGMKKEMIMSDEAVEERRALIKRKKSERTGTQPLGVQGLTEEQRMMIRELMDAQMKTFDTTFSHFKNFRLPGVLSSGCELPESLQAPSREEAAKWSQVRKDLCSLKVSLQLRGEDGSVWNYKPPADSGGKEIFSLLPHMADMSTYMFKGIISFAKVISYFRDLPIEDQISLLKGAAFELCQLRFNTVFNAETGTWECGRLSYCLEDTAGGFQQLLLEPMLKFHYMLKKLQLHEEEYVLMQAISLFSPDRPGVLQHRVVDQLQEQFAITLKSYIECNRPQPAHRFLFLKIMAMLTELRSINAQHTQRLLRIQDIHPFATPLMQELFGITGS
REPORTED_PROPERTY: Activity (%)

Below: 5 compounds and their reported Activity.
# SMILES_ENTRY, NUMERIC_RESULT
measured = [
    ("CC(=O)Nc1ccc(-c2nnc(C3(c4ccc(Cl)cc4)CCC3)n2C)c(Cl)c1", 34),
    ("Cn1c(-c2ccc(-c3cccnc3)cc2Cl)nnc1C1(c2ccc(Cl)cc2)CCC1", 35),
    ("Cn1c(-c2ccc(NC(=O)c3cnccn3)cc2Cl)nnc1C1(c2ccc(Cl)cc2)CCC1", 33),
    ("Cn1c(-c2ccc(C(N)=O)cc2Cl)nnc1C1(c2ccc(Cl)cc2)CCC1", 16),
    ("Cn1c(-c2ccc(-c3cnoc3)cc2)nnc1C1(c2ccc(Cl)cc2)CCC1", 29),
]

I. Cn1c(-c2ccc(N)cc2)nnc1C1(c2ccc(Cl)cc2)CCC1
II. Cn1c(-c2ccc(-c3cnc(N)nc3)cc2)nnc1C1(c2ccc(Cl)cc2)CCC1
III. Cn1c(-c2ccc(C(=O)N3CCC3)cc2)nnc1C1(c2ccc(Cl)cc2)CCC1
IV. Cn1c(-c2ccc(N)cc2Cl)nnc1C1(c2ccc(Cl)cc2)CCC1
**Query** Thanks in advance: please rank these 4 entries by Activity, highest to lowest. # output: labels, in the requested order
**Result** IV, I, III, II
(IV: 35%, I: 22%, III: 10%, II: 3%)

a. Cn1c(-c2ccc(NC(=O)c3cnccn3)cc2)nnc1C1(c2ccc(Cl)cc2)CCC1
b. Cn1c(-c2ccc(-c3cnccn3)cc2OC(F)F)nnc1C1(c2ccc(Cl)cc2)CCC1
c. Clc1ccc(C2(c3nnc4n3CCCCCC4)CCC2)cc1
**Query** Arrange by Activity, high to low. As an answer, provide the labels arranged in the order called for.
**Result** c, b, a

1. Cn1c(-c2ccc(-c3ccc(Cl)nn3)cc2)nnc1C1(c2ccc(Cl)cc2)CCC1
2. Cn1c(-c2ccc(-c3ccon3)cc2)nnc1C1(c2ccc(Cl)cc2)CCC1
3. Cn1c(-c2ccc(-c3ccccc3)cc2)nnc1C1(c2ccc(Cl)cc2)CCC1
**Query** Sort entries by Activity from minimum to maximum value. A complete answer lists every label in the requested sequence.
**Result** 1, 2, 3

1. Cn1c(-c2ccc(C(=O)NC3CC3)cc2)nnc1C1(c2ccc(Cl)cc2)CCC1
2. Cn1c(-c2ccc(-c3ccsc3)cc2)nnc1C1(c2ccc(Cl)cc2)CCC1
3. Cn1c(-c2ccc(-c3cnccn3)cc2C(N)=O)nnc1C1(c2ccc(Cl)cc2)CCC1
**Query** Arrange these 3 compounds in increasing order of Activity. // list labels; follow requested order
**Result** 3, 1, 2

A. Cn1c(-c2ccc(C(=O)N3CCCC3)cc2)nnc1C1(c2ccc(Cl)cc2)CCC1
B. Cc1cc(C(=O)Nc2ccc(-c3nnc(C4(c5ccc(Cl)cc5)CCC4)n3C)cc2)c(C)o1
**Query** From the items above, decide which of A and B has the lower Activity reading. Indicate which entry you chose by stating its label.
**Result** A
(A: 10%, B: 18%)

====

target: Cytochrome P450 2D6 (Homo sapiens)
Sequence (P10635 whole entry): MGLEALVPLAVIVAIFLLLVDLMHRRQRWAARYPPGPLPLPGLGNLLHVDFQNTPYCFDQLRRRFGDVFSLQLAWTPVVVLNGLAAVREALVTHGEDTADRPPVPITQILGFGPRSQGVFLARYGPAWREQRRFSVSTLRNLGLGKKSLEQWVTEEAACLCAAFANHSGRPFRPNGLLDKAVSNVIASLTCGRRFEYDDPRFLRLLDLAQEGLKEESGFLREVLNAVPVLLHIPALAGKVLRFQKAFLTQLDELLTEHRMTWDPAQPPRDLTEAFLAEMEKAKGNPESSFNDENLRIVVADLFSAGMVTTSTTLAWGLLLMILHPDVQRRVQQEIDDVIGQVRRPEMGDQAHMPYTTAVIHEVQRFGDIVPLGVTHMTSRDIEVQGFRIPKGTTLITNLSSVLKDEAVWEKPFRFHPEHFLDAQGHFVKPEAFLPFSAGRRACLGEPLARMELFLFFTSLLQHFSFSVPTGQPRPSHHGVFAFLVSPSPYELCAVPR
REPORTED_PROPERTY: pIC50
Recall that pIC50 is obtained by taking minus log10 of the concentration measured in molar.

**Query** Give pIC50 for Cn1c(-c2ccc(-c3cnccn3)cc2Cl)nnc1C1(c2ccc(Cl)cc2)CC(F)C1 (stereo unspecified)
**Result** 4.60

====

molecular target: 11-beta-hydroxysteroid dehydrogenase 1 (Mus musculus, UniProt P50172); assay: Inhibition of mouse 11beta-HSD1 expressed in CHO-K1 cells assessed as conversion of [3H]cortisone to [3H]cortisol by scintillation counting
Sequence (P50172 whole entry): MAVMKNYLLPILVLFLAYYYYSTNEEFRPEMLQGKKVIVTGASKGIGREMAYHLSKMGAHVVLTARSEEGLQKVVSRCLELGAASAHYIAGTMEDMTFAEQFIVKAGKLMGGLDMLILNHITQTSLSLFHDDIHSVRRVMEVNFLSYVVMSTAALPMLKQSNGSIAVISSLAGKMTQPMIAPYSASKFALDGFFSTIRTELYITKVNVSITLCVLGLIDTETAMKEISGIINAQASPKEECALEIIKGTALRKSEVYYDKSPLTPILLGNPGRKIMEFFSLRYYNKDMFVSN
REPORTED_PROPERTY: IC50 (nM)

# SMILES_ENTRY, IC50 / nM
rows = [
    ("COc1ncc(-c2ccc(-c3nnc(C4(c5ccc(Cl)cc5)CCC4)n3C)cc2)c(OC)n1", 2),
    ("Cn1c(-c2ccc(C(N)=O)cc2C(N)=O)nnc1C1(c2ccc(Cl)cc2)CCC1", 150),
    ("Cn1c(-c2ccc(C(=O)N3CCC3)cc2)nnc1C1(c2ccc(Cl)cc2)CCC1", 62),
]

P. Cn1c(-c2ccc(NC(=O)c3cnccn3)cc2)nnc1C1(c2ccc(Cl)cc2)CCC1
Q. Cn1c(-c2ccc(-c3cncnc3)cc2)nnc1C1(c2ccc(Cl)cc2)CCC1
R. C1CCCn2c(nnc2C23CC4CC(CC(C4)C2)C3)CC1
**Query** Sort ascending by IC50. When ranking, write the labels in the order the request describes.
**Result** Q, P, R

I. Cn1c(-c2ccc(-c3ccc(Cl)nn3)cc2)nnc1C1(c2ccc(Cl)cc2)CCC1
II. COc1cc(-c2cccnc2)ccc1-c1nnc(C2(c3ccc(Cl)cc3)CCC2)n1C
**Query** Of I and II , which shows the smaller IC50 value? Identify your selection by its label.
**Result** II
(II: 0.75 nM, I: 1.5 nM)

I. Cn1c(-c2ccc(-c3cnccn3)cc2OC(F)F)nnc1C1(c2ccc(Cl)cc2)CCC1
II. Cc1noc(C)c1-c1ccc(-c2nnc(C3(c4ccc(Cl)cc4)CCC3)n2C)cc1
**Query** Of I and II , which one carries the higher reported IC50? Reply with the label of the item you choose.
**Result** II
(II: 3.4 nM, I: 1 nM)

A. Cn1c(-c2ccc(-c3ccc(N)nn3)cc2)nnc1C1(c2ccc(Cl)cc2)CCC1
B. Cn1c(-c2ccc(C(=O)NC3CC3)cc2)nnc1C1(c2ccc(Cl)cc2)CCC1
C. Cn1c(-c2ccc(-c3cccnc3)cc2F)nnc1C1(c2ccc(Cl)cc2)CCC1
D. Cn1c(-c2ccc(C(=O)N3CCOCC3)cc2)nnc1C1(c2ccc(Cl)cc2)CCC1
**Query** Endpoint returns the given molecules ordered by ascending IC50. Would you mind listing the labels in the order asked for?
**Result** A, C, B, D

I. Cn1c(-c2ccc(C(=O)NC3CCC3)cc2)nnc1C1(c2ccc(Cl)cc2)CCC1
II. Cn1c(-c2ccc(C(=O)NC(C)(C)C)cc2)nnc1C1(c2ccc(Cl)cc2)CCC1
**Query** Thinking about recorded IC50 values, which is higher, I or II ? Indicate your choice by writing its label.
**Result** I

A. Cn1c(-c2ccc(NC(=O)c3cnccn3)cc2Cl)nnc1C1(c2ccc(Cl)cc2)CCC1
B. CCNC(=O)c1ccc(-c2nnc(C3(c4ccc(Cl)cc4)CCC3)n2C)cc1
C. Cn1c(-c2ccc(-c3cnc(O)nc3)cc2)nnc1C1(c2ccc(Cl)cc2)CCC1
D. Cn1c(-c2ccc(C(N)=O)cc2)nnc1C1(c2ccc(Cl)cc2)CCC1
**Query** Rank entries according to their IC50, from the largest number down. To answer, arrange all of the labels according to the requested order.
**Result** D, B, C, A
(D: 26 nM, B: 7.8 nM, C: 2.9 nM, A: 1.9 nM)

1. Cn1c(-c2ccc(-c3ccon3)cc2)nnc1C1(c2ccc(Cl)cc2)CCC1
2. Cn1c(-c2ccc(-c3cccnc3)cc2O)nnc1C1(c2ccc(Cl)cc2)CCC1
3. Cn1c(-c2ccc(NC(=O)c3ccno3)cc2)nnc1C1(c2ccc(Cl)cc2)CCC1
**Query** Arrange the 3 entries by IC50 so the values rise. API: response body holds the labels in the requested order.
**Result** 2, 3, 1
(2: 1 nM, 3: 2.8 nM, 1: 6 nM)

Reference source: ChEMBL document CHEMBL1759971
